# RUN DESCRIPTION: M. tuberculosis growth inhibition, HTS (AID 449762);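 further: bacterial growth assessed after seven days of incubation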
# MEASUREMENT CONDITIONS: M. tuberculosis H37Rv growth inhibition, 7H9 media; at 25 µM; active compounds read high
About 1,900 (0.58%) of roughly 330,000 compounds were called active. Not shown: some 4% with an inconclusive outcome. Only a sample is shown. Potency and affinity values are given separately.
// reported inhibition per item
Give your result in % as a bare value.

Below: 4 compounds and their reported inhibition.
c1ccc(N/N=C2\CCCc3ccccc32)nc1 :: 9.09
Cc1cc(NC2CCCCC2)nc2ccccc12 :: 10
COC(=O)C1=NNC(C(=O)c2ccco2)C1c1ccccc1 (stereo unspecified) :: 4.3
CCCC(=O)Nc1nnc(S(=O)(=O)N(CC)c2ccc(OC)cc2)s1 :: 6.35

Recorded inhibition (compound CCOc1ccc2[nH]cc(C(=O)N3CCN(CC)CC3)c(=O)c2c1 ): 5.18

Briefly, inhibition measured for OCCCNc1nccc(-c2cc(Nc3cccc(Cl)c3)ncn2)n1 : 5.56

Lookup result for COc1ccccc1N1CCN(C(=O)CNC(=O)c2ccc(Cl)cc2Cl)CC1 ; measured inhibition: 4.89

Cn1c(CNC(=O)c2ccco2)nnc1SCC(=O)c1ccc(F)cc1 has a reported inhibition of -2.19

Measured inhibition, CCN(c1cc(C)cc(C)c1)S(=O)(=O)c1nnc(NC(=O)C(C)(C)C)s1 : 5.8

Cc1cc(/C=N/n2cnnc2)c(C)n1-c1ccc(OCc2ccc(F)cc2)cc1 yielded inhibition of -2.12

# inhibition of CC(C)Cn1c(N)c(C(=O)COC(=O)Cc2cccc(C(F)(F)F)c2)c(=O)n(C)c1=O = 3

###

# RUN DESCRIPTION: M. tuberculosis growth inhibition, HTS (AID 449762);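 further: bacterial growth assessed after seven days of incubation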
# MEASUREMENT CONDITIONS: M. tuberculosis H37Rv growth inhibition, 7H9 media; at 25 µM; active compounds read high
The whole screen tested about 330,000 compounds, of which about 1,900 (0.58%) were called active. Roughly 4% stayed inconclusive and do not appear here. Only a sample is shown. Entries with a potency or affinity are not part of this list.
Let's look at some molecules and their measured inhibition.
Unit % implied. Number only.

O=C(NCc1ccccc1)c1ccc2c(=O)[nH]c3c(C(=O)NCC4CCCO4)sc(=S)n3c2c1 (configuration not stated) :: 9.46
O=C1/C(=N\S(=O)(=O)c2cccs2)C([n+]2ccccc2)=C([O-])c2ccccc21 :: -2.62

Reported inhibition ( CN(C)N1C(=O)/C(=C/c2ccco2)SC1=Nc1ccccc1 ) = -2.31

Looking up COc1ccc(CC2(CO)CCN(C/C=C/c3ccccc3OC)CC2)cc1 , I see its inhibition listed as 50.6

Query Cc1cc(C)n(CCC(=O)N=Nc2c(O)[nH]c3ccccc23)n1 yields inhibition of 3.85

For reference, reported inhibition for C=C1C(=O)O[C@@H]2C[C@@H](C)[C@H]3C=CC(=O)[C@]3(O)C[C@@H]12 stands at 7.75

# inhibition (molecule: O=C(/C=C/c1ccco1)Nc1ccc(-c2nc3ccccc3[nH]2)cc1 ) is -5.99

The reported value for CC(C)(C)c1ccc(C(=O)OCCNC(=O)c2c(Cl)nc3ccccn23)cc1 in terms of inhibition is -5.57

Record summary for CCc1cc[n+](C2=C([O-])c3ccccc3C(=O)/C2=N\S(=O)(=O)c2cccs2)cc1 : reported inhibition = 2.09

// field: inhibition; key: O=C(NCc1cccnc1)c1ccc(Cl)c(Cl)c1 ; value = 3.71

Summary for this molecule, OCC1(Cc2ccccc2Cl)CCN(C/C=C/c2ccccc2)CC1 : inhibition is 2.72
